# Tested On: UniProtKB Q96P20
# Sequence (Q96P20 whole entry): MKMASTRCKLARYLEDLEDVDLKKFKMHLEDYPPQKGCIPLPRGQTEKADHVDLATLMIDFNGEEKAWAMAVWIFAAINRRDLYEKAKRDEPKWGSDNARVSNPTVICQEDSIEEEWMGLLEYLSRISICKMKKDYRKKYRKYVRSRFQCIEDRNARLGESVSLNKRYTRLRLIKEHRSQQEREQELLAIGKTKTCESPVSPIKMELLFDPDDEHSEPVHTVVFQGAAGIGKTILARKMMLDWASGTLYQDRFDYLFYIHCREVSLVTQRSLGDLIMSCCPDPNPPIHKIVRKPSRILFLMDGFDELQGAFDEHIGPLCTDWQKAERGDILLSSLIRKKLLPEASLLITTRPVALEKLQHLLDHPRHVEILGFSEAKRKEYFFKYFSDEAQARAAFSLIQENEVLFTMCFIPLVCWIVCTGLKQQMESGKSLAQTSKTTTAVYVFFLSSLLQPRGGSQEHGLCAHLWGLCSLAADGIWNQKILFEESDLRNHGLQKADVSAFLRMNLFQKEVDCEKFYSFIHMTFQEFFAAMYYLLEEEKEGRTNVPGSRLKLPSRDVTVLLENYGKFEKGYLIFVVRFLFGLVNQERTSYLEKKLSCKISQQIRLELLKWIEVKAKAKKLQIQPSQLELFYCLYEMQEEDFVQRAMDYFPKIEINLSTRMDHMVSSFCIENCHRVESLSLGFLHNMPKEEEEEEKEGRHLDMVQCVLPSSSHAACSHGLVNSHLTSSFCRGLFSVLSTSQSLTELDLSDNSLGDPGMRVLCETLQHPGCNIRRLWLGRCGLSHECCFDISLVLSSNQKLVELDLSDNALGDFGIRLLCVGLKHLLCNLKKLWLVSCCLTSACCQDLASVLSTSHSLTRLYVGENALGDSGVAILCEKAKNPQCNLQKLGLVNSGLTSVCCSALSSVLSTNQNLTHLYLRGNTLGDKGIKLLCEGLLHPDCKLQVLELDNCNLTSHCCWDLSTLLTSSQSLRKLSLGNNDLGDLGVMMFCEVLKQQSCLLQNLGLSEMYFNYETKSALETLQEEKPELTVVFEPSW
# Method: THP-1 cells pyroptosis assay (LPS priming, nigericin, resazurin read-out)
# Type: cell-based
# Set-up: Seed THP-1 cells (25,000 cells/well) containing 1.0 μg/ml LPS; host or cells: THP-1 cells, LPS-primed, nigericin-stimulated
# Condition Set: 1 μg/ml LPS, 3 hours compound, 5 μM nigericin 1 hr
Readout Type: pIC50
// returns pIC50 (minus log10 of molar concentration), number only

Example compounds with recorded pIC50:
CCN1CCC[C@@H](Nc2cc(C)c(-c3ccc4c(F)c[nH]c4c3)nn2)C1 8.57
CCN1CCC[C@@H](Nc2cc(C)c(-c3cc4[nH]ccc4cc3F)nn2)C1 8.04
CCN1CCC[C@@H](Nc2cc(C)c(-c3ccc4cc[nH]c4c3F)nn2)C1 7.65
CCN1CCC[C@@H](Nc2nnc(-c3ccc4cc[nH]c4c3)c(C)n2)C1 7.33

Please find the next compound below.
# get_value(readout='pIC50', item= Cc1cc(N[C@H]2C[C@@](C)(O)C2)nnc1-c1ccc2c(F)c[nH]c2c1 )
6.31
